target.of.assay: Neuropeptide Y receptor type 1 (Homo sapiens) (UniProt P25929)
Sequence (P25929 whole entry): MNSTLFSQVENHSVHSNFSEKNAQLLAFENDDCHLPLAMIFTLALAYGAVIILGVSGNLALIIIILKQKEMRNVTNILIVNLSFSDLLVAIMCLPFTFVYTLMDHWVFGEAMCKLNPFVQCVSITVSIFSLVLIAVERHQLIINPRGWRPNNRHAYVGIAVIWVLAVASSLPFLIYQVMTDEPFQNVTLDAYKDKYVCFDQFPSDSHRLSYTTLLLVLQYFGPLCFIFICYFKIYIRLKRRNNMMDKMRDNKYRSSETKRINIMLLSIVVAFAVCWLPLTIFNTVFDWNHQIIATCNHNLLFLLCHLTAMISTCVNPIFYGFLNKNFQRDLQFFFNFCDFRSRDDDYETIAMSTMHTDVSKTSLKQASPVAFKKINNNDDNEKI
assay.procedure: Antagonist potency for the inhibition of Forskolin stimulated cAMP synthesis in cells expressing cloned Y1 receptors
Assay type: functional
measure: Kb (nM)
Reply numerically in nM, unit not repeated.

// worked examples, Kb included
compound.structure | unit.label | endpoint.result
CC[C@H](C)[C@H](N)C(=O)N[C@H]1CCC(=O)NC[C@@H](C(=O)N[C@@H](Cc2ccc(O)cc2)C(=O)N[C@@H](CCCN=C(N)N)C(=O)N[C@@H](CC(C)C)C(=O)N[C@@H](CCCN=C(N)N)C(=O)N[C@@H](Cc2ccc(O)cc2)C(=O)OC)NC(=O)[C@@H]2CCCN2C(=O)[C@H](NC(=O)[C@@H](N)[C@@H](C)CC)CCC(=O)NC[C@H](C(=O)N[C@@H](Cc2ccc(O)cc2)C(=O)N[C@@H](CCCN=C(N)N)C(=O)N[C@@H](CC(C)C)C(=O)N[C@@H](CCCN=C(N)N)C(=O)N[C@@H](Cc2ccc(O)cc2)C(=O)OC)NC(=O)[C@@H]2CCCN2C1=O | nM | 0.19
CC[C@H](C)[C@H](N)C(=O)N[C@H]1CCC(=O)NC[C@@H](C(=O)N[C@@H](Cc2ccc(O)cc2)C(=O)N[C@@H](CCCN=C(N)N)C(=O)N[C@@H](CC(C)C)C(=O)N[C@@H](CCCN=C(N)N)CN[C@@H](Cc2ccc(O)cc2)C(N)=O)NC(=O)[C@@H]2CCCN2C(=O)[C@H](NC(=O)[C@@H](N)[C@@H](C)CC)CCC(=O)NC[C@H](C(=O)N[C@@H](Cc2ccc(O)cc2)C(=O)N[C@@H](CCCN=C(N)N)C(=O)N[C@@H](CC(C)C)C(=O)N[C@@H](CCCN=C(N)N)CN[C@@H](Cc2ccc(O)cc2)C(N)=O)NC(=O)[C@@H]2CCCN2C1=O | nM | 0.58

Next, consider the following compound.
// recorded Kb for `CC[C@H](C)[C@H](N)C(=O)N[C@@H](CC(N)=O)C(=O)N1CCC[C@H]1C(=O)N[C@@H](CSSC[C@@H](NC(=O)[C@@H]1CCCN1C(=O)[C@H](CC(N)=O)NC(=O)[C@@H](N)[C@@H](C)CC)C(=O)N[C@@H](Cc1ccc(O)cc1)C(=O)N[C@@H](CCCN=C(N)N)C(=O)N[C@@H](CC(C)C)C(=O)N[C@@H](CCCN=C(N)N)CN[C@@H](Cc1ccc(O)cc1)C(N)=O)C(=O)N[C@@H](Cc1ccc(O)cc1)C(=O)N[C@@H](CCCN=C(N)N)C(=O)N[C@@H](CC(C)C)C(=O)N[C@@H](CCCN=C(N)N)CN[C@@H](Cc1ccc(O)cc1)C(N)=O` : 0.79

* * *

Observed Ki for Neuropeptide Y receptor type 5 (Homo sapiens), reported per entry below.
Where a SMILES comes first, the peptide text is derived from it. The star is where a group is joined. Argψ(CH2NH)TyrNH2 = N=C(N)NCCC[C@@H](CN[C@@H](Cc1ccc(O)cc1)C(N)=O)N*
Reply numerically in µM, unit not repeated.

compound | Ki [µM]
CC[C@H](C)[C@H](N)C(=O)N[C@@H](CC(N)=O)C(=O)N1CCC[C@H]1C(=O)N[C@@H](CSSC[C@H](NC(=O)[C@@H]1CCCN1C(=O)[C@H](CC(N)=O)NC(=O)[C@@H](N)[C@@H](C)CC)C(=O)N[C@@H](Cc1ccc(O)cc1)C(=O)N[C@@H](CCCNC(=N)N)C(=O)N[C@@H](CC(C)C)C(=O)N[C@@H](CCCNC(=N)N)CN[C@@H](Cc1ccc(O)cc1)C(N)=O)C(=O)N[C@@H](Cc1ccc(O)cc1)C(=O)N[C@@H](CCCNC(=N)N)C(=O)N[C@@H](CC(C)C)C(=O)N[C@@H](CCCNC(=N)N)CN[C@@H](Cc1ccc(O)cc1)C(N)=O | 2.34

The observed Ki for CC[C@H](C)[C@H](N)C(=O)N[C@@H](CC(N)=O)C(=O)N1CCC[C@H]1C(=O)N[C@H](C(=O)N[C@@H](Cc1ccc(O)cc1)C(=O)N[C@@H](CCCNC(=N)N)C(=O)N[C@@H](CC(C)C)C(=O)N[C@@H](CCCNC(=N)N)C(=O)N[C@@H](Cc1ccc(O)cc1)C(=O)OC)[C@@H](C)CC (H-INPIYRLRY-OMe) when tested with Neuropeptide Y receptor type 5 (Homo sapiens) stands at 7.1

The observed Ki for CC[C@H](C)[C@H](N)C(=O)N[C@@H](CC(N)=O)C(=O)N1CCC[C@H]1C(=O)N[C@H](C(=O)N[C@@H](Cc1ccc(O)cc1)C(=O)N[C@@H](CCCNC(=N)N)C(=O)N[C@@H](CC(C)C)C(=O)N[C@@H](CCCNC(=N)N)CN[C@@H](Cc1ccc(O)cc1)C(N)=O)[C@@H](C)CC (H-INPIYRL-{Argψ(CH2NH)TyrNH2}) when tested with Neuropeptide Y receptor type 5 (Homo sapiens) stands at 5.08
